These data points were gathered from patent US20260327232A1.

target: IRAK4 (Homo sapiens); test: ALE THP1 HTRF (IRAK4 in THP1 cell lysates, Homogeneous Time Resolved Fluorescence); details: THP1 cells
Measurement name: EC50 (nM)
I only need the number, in nM, no unit after it.

Value lookup for EC50; key = Cn1nc(C2CCC(=O)NC2=O)c2ccc(N[C@@H]3CCN(CC4CCC(n5cc(NC(=O)c6cnn7ccc(N8C[C@H](N)C[C@@H](F)C8)nc67)c(C(F)F)n5)CC4)C[C@@H]3F)cc21 (some centres unmarked) [P-24] 4

Value lookup for EC50; key = CN(c1ccc2c(C3CCC(=O)NC3=O)nn(C)c2c1)C1CCN(C[C@H]2CC[C@H](n3cc(NC(=O)c4cnn5ccc(N6CCOCC6)nc45)c(C(F)F)n3)CC2)CC1 (some centres unmarked) [P-32] 1

Value lookup for EC50; key = Cn1nc(C2CCC(=O)NC2=O)c2ccc(N[C@H]3CCN(C[C@H]4CC[C@H](n5cc(NC(=O)c6cnn7ccc(N8C[C@H](N)C[C@@H](F)C8)nc67)c(C(F)F)n5)CC4)C[C@H]3F)cc21 (some centres unmarked) [P-23] 4

Value lookup for EC50; key = Cn1nc(C2CCC(=O)NC2=O)c2ccc(C(=O)N3CCN(C[C@H]4CC[C@H](n5cc(NC(=O)c6cnn7ccc(N8C[C@H](N)C[C@@H](F)C8)nc67)c(C(F)F)n5)CC4)CC3)cc21 (some centres unmarked) [P-17] 1

====

Target: IRAK4 (Homo sapiens, UniProt Q9NWZ3)
Sequence (Q9NWZ3 1-460): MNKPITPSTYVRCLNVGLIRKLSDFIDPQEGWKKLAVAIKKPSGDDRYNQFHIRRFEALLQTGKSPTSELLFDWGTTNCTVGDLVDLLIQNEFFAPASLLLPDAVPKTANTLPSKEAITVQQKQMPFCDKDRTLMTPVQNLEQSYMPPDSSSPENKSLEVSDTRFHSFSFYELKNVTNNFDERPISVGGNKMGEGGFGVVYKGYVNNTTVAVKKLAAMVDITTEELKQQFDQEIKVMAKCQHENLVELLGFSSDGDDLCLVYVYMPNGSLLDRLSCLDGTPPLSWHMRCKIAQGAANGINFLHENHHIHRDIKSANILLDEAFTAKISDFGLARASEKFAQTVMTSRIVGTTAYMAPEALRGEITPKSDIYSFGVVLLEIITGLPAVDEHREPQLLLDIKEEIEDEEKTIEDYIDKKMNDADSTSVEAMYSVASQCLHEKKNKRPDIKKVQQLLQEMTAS
Experiment: IRAK4 PhosphoSens Biochemical Assay (BIOCHEM)
Settings: 200 μM ATP, 10 μM peptide substrate AQT0326, 1 nM IRAK4, room temperature, 240 minutes
Structures can show the parent of a compound that is named as a salt.
Would you kindly list IC50 for each of these compounds?

Value lookup for IC50; key = CN(C[C@H]1CC[C@H](n2cc(NC(=O)c3cnn4ccc(N5CCOC5)nc34)c(C(F)F)n2)CC1)C1CCN(c2ccc3c(C4CCC(=O)NC4=O)nn(C)c3c2)CC1 (stereo partly drawn) < 0.5 nM

Value lookup for IC50; key = Cn1nc(C2CCC(=O)NC2=O)c2cccc(NC3CCN(CCC4CCC(n5cc(NC(=O)c6cnn7ccc(N8C[C@H](N)C[C@@H](F)C8)nc67)c(C(F)F)n5)CC4)CC3)c21 (stereo partly drawn) [P-7, bis-HCl salt] < 0.5 nM

Value lookup for IC50; key = Cn1nc(C2CCC(=O)NC2=O)c2ccc(NC3CCN(C[C@H]4CC[C@H](n5cc(NC(=O)c6cnn7ccc(N8C[C@H](N)CC(F)(F)C8)nc67)c(C(F)F)n5)CC4)CC3)cc21 (stereo partly drawn) < 0.5 nM

Value lookup for IC50; key = CN(CC[C@H]1CC[C@H](n2cc(NC(=O)c3cnn4ccc(N5CCOCC5)nc34)c(C(F)F)n2)CC1)C1CCN(c2ccc3c(C4CCC(=O)NC4=O)nn(C)c3c2)CC1 (stereo partly drawn) < 0.5 nM

Value lookup for IC50; key = Cn1nc(C2CCC(=O)NC2=O)c2ccc(NC3CN(C[C@H]4CC[C@H](n5cc(NC(=O)c6cnn7ccc(N8C[C@H](N)C[C@@H](F)C8)nc67)c(C(F)F)n5)CC4)C3)cc21 (stereo partly drawn) < 0.5 nM

Value lookup for IC50; key = Cn1nc(C2CCC(=O)NC2=O)c2ccc(N[C@@H]3CCN(CC4CCC(n5cc(NC(=O)c6cnn7ccc(N8C[C@H](N)C[C@@H](F)C8)nc67)c(C(F)F)n5)CC4)C[C@H]3F)cc21 (stereo partly drawn) < 0.5 nM

Value lookup for IC50; key = Cn1nc(C2CCC(=O)NC2=O)c2ccc(N[C@H]3CCN(C[C@H]4CC[C@H](n5cc(NC(=O)c6cnn7ccc(N8C[C@H](N)C[C@@H](F)C8)nc67)c(C(F)F)n5)CC4)C[C@H]3F)cc21 (stereo partly drawn) < 0.5 nM

Value lookup for IC50; key = Cn1nc(C2CCC(=O)NC2=O)c2cccc(N3CCC(NC(=O)[C@H]4CC[C@H](n5cc(NC(=O)c6cnn7ccc(N8C[C@H](N)C[C@@H](F)C8)nc67)c(C(F)F)n5)CC4)CC3)c21 (stereo partly drawn) < 0.5 nM

Value lookup for IC50; key = Cn1nc(C2CCC(=O)NC2=O)c2ccc(NC3CCN(C(=O)[C@H]4CC[C@H](n5cc(NC(=O)c6cnn7ccc(N8C[C@H](N)C[C@@H](F)C8)nc67)c(C(F)F)n5)CC4)CC3)cc21 (stereo partly drawn) 0.5 nM

Value lookup for IC50; key = Cn1nc(C2CCC(=O)NC2=O)c2cccc(N3CCN(CCC4CCC(n5cc(NC(=O)c6cnn7ccc(N8C[C@H](N)C[C@@H](F)C8)nc67)c(C(F)F)n5)CC4)CC3)c21 (stereo partly drawn) < 0.5 nM

Value lookup for IC50; key = Cn1nc(C2CCC(=O)NC2=O)c2cccc(NC3CCN(C(=O)[C@H]4CC[C@H](n5cc(NC(=O)c6cnn7ccc(N8C[C@H](N)C[C@@H](F)C8)nc67)c(C(F)F)n5)CC4)CC3)c21 (stereo partly drawn) [P-9, hydrochloride] < 0.5 nM

Value lookup for IC50; key = CN(C[C@H]1CC[C@H](n2cc(NC(=O)c3cnn4ccc(NCc5ccccn5)nc34)c(C(F)F)n2)CC1)C1CCN(c2ccc3c(C4CCC(=O)NC4=O)nn(C)c3c2)CC1 (stereo partly drawn) 7.3 nM

====

molecular target: IRAK4 (Homo sapiens); assay: IRAK4 PhosphoSens Biochemical Assay (BIOCHEM); details: 200 μM ATP, 10 μM peptide substrate AQT0326, 1 nM IRAK4, room temperature, 240 minutes
Measurement name: IC50

Checklist item: IC50 tested on IRAK4 (Homo sapiens), entry Cn1nc(C2CCC(=O)NC2=O)c2cccc(N3CCN(C[C@H]4CC[C@H](n5cc(NC(=O)c6cnn7ccc(N8C[C@H](N)C[C@@H](F)C8)nc67)c(C(F)F)n5)CC4)CC3)c21 (stereo partly drawn) [P-8] , value? < 0.5 nM

Checklist item: IC50 tested on IRAK4 (Homo sapiens), entry CN(c1ccc2c(C3CCC(=O)NC3=O)nn(C)c2c1)C1CCN(CC[C@H]2CC[C@H](n3cc(NC(=O)c4cnn5ccc(N6C[C@H](N)C[C@@H](F)C6)nc45)c(C(F)F)n3)CC2)CC1 (stereo partly drawn) [P-33] , value? < 0.5 nM

Checklist item: IC50 tested on IRAK4 (Homo sapiens), entry CN(C)c1ccn2ncc(C(=O)Nc3cn([C@H]4CC[C@H](CN(C)C5CCN(c6ccc7c(C8CCC(=O)NC8=O)nn(C)c7c6)CC5)CC4)nc3C(F)F)c2n1 (stereo partly drawn) [P-43] , value? < 0.5 nM

====

Would you kindly list EC50 for each of these compounds?
Target: IRAK4 (Homo sapiens, UniProt Q9NWZ3)
Test: ALE THP1 HTRF (IRAK4 in THP1 cell lysates, Homogeneous Time Resolved Fluorescence)
Conditions: THP1 cells
Method: Cell culture media was prepared in a tissue culture hood in a sterile environment by adding 10% FBS and 1% Penicillin Streptomycin to 500 mL no phenol red RPMI 1640 media. The media was filtered through a Nalgene Bottle Top Filter and stored at 4° C. For Homogenous Time Resolved Fluorescence (HTRF) assays, a Cisbio HTRF kit was used, which included: Lysis Buffer #1 4×, Blocking Reagent #3 100×, 20× Antibody 1 (Anti-IRAK4 d2), 20× Antibody 2 (Anti-IRAK4 k), and Detection Buffer. […]
I only need the number, in nM, no unit after it.

Checklist item: EC50 tested on IRAK4 (Homo sapiens, UniProt Q9NWZ3), entry CN(C[C@H]1CC[C@H](n2cc(NC(=O)c3cnn4ccc(N5CC[C@@H](c6ccn(C)n6)C5)nc34)c(C(F)F)n2)CC1)C1CCN(c2ccc3c(C4CCC(=O)NC4=O)nn(C)c3c2)CC1 (stereo partly shown) , value? 3750

Checklist item: EC50 tested on IRAK4 (Homo sapiens, UniProt Q9NWZ3), entry Cn1nc(C2CCC(=O)NC2=O)c2ccc(NC3CCN(C[C@H]4CC[C@H](n5cc(NC(=O)c6cnn7ccc(N8C[C@H](N)CC(F)(F)C8)nc67)c(C(F)F)n5)CC4)CC3)cc21 (stereo partly shown) , value? 5

Checklist item: EC50 tested on IRAK4 (Homo sapiens, UniProt Q9NWZ3), entry Cn1nc(C2CCC(=O)NC2=O)c2ccc(N3CCN(CC[C@H]4CC[C@H](n5cc(NC(=O)c6cnn7ccc(N8C[C@H](N)C[C@@H](F)C8)nc67)c(C(F)F)n5)CC4)CC3)cc21 (stereo partly shown) , value? 14

Checklist item: EC50 tested on IRAK4 (Homo sapiens, UniProt Q9NWZ3), entry CN(CC[C@H]1CC[C@H](n2cc(NC(=O)c3cnn4ccc(N5CCOCC5)nc34)c(C(F)F)n2)CC1)C1CCN(c2cccc3c(C4CCC(=O)NC4=O)nn(C)c23)CC1 (stereo partly shown) , value? 4

Checklist item: EC50 tested on IRAK4 (Homo sapiens, UniProt Q9NWZ3), entry Cn1nc(C2CCC(=O)NC2=O)c2ccc(NC3CN(C[C@H]4CC[C@H](n5cc(NC(=O)c6cnn7ccc(N8C[C@H](N)C[C@@H](F)C8)nc67)c(C(F)F)n5)CC4)C3)cc21 (stereo partly shown) , value? 1

Checklist item: EC50 tested on IRAK4 (Homo sapiens, UniProt Q9NWZ3), entry Cn1nc(C2CCC(=O)NC2=O)c2cccc(N3CCN(C[C@H]4CC[C@H](n5cc(NC(=O)c6cnn7ccc(N8C[C@H](N)C[C@@H](F)C8)nc67)c(C(F)F)n5)CC4)CC3)c21 (stereo partly shown) , value? 7

Checklist item: EC50 tested on IRAK4 (Homo sapiens, UniProt Q9NWZ3), entry Cn1nc(C2CCC(=O)NC2=O)c2ccc(NC3CC4(C3)CN(CC3CCC(n5cc(NC(=O)c6cnn7ccc(N8C[C@H](N)C[C@@H](F)C8)nc67)c(C(F)F)n5)CC3)C4)cc21 (stereo partly shown) , value? 6

Checklist item: EC50 tested on IRAK4 (Homo sapiens, UniProt Q9NWZ3), entry Cn1nc(C2CCC(=O)NC2=O)c2ccc(NC3CCN(CC[C@H]4CC[C@H](n5cc(NC(=O)c6cnn7ccc(N8C[C@H](N)C[C@@H](F)C8)nc67)c(C(F)F)n5)CC4)CC3)cc21 (stereo partly shown) , value? 5
